Data provenance is BindingDB's records for patent US20250042903.

Each entry below carries its measured IC50, system: Cyclin-dependent kinase 12 (Homo sapiens).
Sequence (Q9NYV4 whole entry): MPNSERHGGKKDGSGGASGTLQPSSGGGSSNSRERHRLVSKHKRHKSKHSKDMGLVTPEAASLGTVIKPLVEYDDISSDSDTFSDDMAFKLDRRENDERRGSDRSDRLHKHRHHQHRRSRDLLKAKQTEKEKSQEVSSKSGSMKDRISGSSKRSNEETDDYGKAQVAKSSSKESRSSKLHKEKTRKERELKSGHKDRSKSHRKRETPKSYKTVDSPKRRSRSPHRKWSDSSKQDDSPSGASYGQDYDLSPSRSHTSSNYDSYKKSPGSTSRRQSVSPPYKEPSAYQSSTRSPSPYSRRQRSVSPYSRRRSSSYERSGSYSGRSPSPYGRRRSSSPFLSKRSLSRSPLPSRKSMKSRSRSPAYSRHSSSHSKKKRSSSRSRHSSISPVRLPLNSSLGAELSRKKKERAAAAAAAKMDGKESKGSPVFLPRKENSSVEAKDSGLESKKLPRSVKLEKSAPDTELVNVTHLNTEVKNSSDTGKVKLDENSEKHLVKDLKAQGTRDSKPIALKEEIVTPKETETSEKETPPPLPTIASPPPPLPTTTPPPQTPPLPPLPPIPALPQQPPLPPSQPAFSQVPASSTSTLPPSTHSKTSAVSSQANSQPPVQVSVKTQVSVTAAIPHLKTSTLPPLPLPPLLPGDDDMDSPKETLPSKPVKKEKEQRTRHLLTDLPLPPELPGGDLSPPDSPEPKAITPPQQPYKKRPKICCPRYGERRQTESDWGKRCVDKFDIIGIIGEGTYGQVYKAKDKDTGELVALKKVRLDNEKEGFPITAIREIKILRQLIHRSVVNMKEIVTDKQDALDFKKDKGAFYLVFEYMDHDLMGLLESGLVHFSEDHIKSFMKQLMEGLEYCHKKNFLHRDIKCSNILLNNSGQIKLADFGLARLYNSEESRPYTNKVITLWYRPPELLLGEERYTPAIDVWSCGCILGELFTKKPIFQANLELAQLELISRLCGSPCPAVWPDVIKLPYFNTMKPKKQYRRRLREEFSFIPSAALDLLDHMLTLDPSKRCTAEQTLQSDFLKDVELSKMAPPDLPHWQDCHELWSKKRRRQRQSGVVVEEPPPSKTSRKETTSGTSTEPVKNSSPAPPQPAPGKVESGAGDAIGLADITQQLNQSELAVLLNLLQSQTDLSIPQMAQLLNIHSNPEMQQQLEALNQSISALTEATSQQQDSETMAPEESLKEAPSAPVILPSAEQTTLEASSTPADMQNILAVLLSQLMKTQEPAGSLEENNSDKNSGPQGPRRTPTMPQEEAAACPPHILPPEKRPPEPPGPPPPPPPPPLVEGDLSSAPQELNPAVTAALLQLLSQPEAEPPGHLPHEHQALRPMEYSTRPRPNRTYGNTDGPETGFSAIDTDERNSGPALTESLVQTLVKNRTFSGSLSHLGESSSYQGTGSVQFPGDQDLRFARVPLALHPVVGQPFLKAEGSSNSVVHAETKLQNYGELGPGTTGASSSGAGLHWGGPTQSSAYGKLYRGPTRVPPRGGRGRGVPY
observable: IC50 (µM)

>  <compound>
CN1CC(C2C=NN3C(NCc4nc5cc(Cl)c(Cl)cc5[nH]4)=NC(N4CCOCC4)=NC23)C=N1 (configuration not stated)

>  <observable>
IC50

>  <result-unit>
µM

>  <readout-value>
0.554

$$$$
>  <compound>
FC(F)N1CC(C2C=NN3C(NCc4nc5cc(Cl)c(Cl)cc5[nH]4)=NC(N4CCOCC4)=NC23)C=N1 (configuration not stated)

>  <observable>
IC50

>  <result-unit>
µM

>  <readout-value>
0.262

$$$$
